test system: HCT116 cells; experiment: HCT116 cell proliferation inhibition in vitro (3D CellTiter-Glo, 5 days); type: cell-based; settings: Homo sapiens, HCT-116, 120 h, read-out: HCT116/IC50
MEASUREMENT_LABEL: pIC50
Schema: pIC50 number; meaning minus log10 of the concentration expressed in molar units.

The reported value for CNS(=O)(=O)Nc1cccc(Cc2c(C)c3c(F)cc(OC(=O)N(C)C)cc3oc2=O)c1F [Compound 2] in terms of pIC50 is 8.14

====

assay: Pharmacokinetic study in CD-1 male mice after oral and intravenous administration; format: in vivo; settings: mouse, intravenous injection, 1.04 mg/kg, plasma, read-out: Apparent volume of distribution Vdss
MEASUREMENT_LABEL: Vd (L/kg)
# value in L/kg; strip the unit string

The reported value for CNS(=O)(=O)Nc1nccc(Cc2c(C)c3c(F)cc(Oc4ncccn4)cc3oc2=O)c1F in terms of Vd is 0.35

====

assay: Pharmacokinetic study in CD-1 male mice after oral and intravenous administration; assay type: in vivo; conditions: mouse, intravenous injection, 1.04 mg/kg, plasma, read-out: Clearance CL
MEASUREMENT_LABEL: clearance (mL/min/kg)
# value in mL/min/kg; strip the unit string

The reported value for CNS(=O)(=O)Nc1nccc(Cc2c(C)c3c(F)cc(Oc4ncccn4)cc3oc2=O)c1F in terms of clearance is 0.69

Origin of the recorded values: patent US20250154120A1
